Data provenance: patent US8840891

Target: T1, TSHR coated onto tubes (human, UniProt P16473 21-764, limits assumed)
T1 construct: whole entry named; also called TSHR coated tubes; thyrotropin receptor
Test: TSHR coated tubes, competitor 125I-5C9 IgG
Can you tell me % inhib of 125I-5C9 IgG binding at 0.01 µg/mL for the items I'm about to list?
One number for each entry, in %.

{"columns": ["BINDER", "ASSAY VALUE"],
 "data": [
  ["14D3 IgG (antibody, V domains shown) VH: DVQMQQPGPELVKPGASLKMSCKASGYSFTGYNMHWVKQSHGKSLEWIGYIDPYSGATSYNQKFEGKATLTVDKSSSTAYMQLNSLTSEDSAVYYCARRWDWDPYAMDYWGQGTSVTVSS VL: NILMTQSPAILSVSPGERVSFACRASQSIGTSIHWYQQRTNGSPRLLIKYASESISGIPSRFSGSGSGTDFTLSINSVESEDIADYYCQQTNRWPLTFGAGTKLELKR", 1],
  ["17D2 IgG (antibody, V domains shown) VH: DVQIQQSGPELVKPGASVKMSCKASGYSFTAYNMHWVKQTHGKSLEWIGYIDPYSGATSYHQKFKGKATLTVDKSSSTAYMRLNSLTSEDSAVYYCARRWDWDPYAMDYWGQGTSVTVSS VL: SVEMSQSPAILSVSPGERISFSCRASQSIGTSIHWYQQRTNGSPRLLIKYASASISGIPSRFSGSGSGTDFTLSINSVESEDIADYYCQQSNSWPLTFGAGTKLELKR", 3],
  ["9D33 IgG (antibody, V domains shown) VH: DVQIQQPGTELVKPGASVRLSCKASGYTFTTYWMHWVKQRPGQGLEWIGEIDPSDSYTNYNQKFKGKATLTVDKSSSTAYMHLSSLTSEDSAVYYCSRNYGSGYYFDYWGQGTTLTVSS VL: GVEMTQSPAIMSASPGEKVTMTCSASSSVSYMHWYQQKSGTSPKRWIYDTSKLASGVPARFSGSGSGTSYSLTISSMETEDAATYYCQQWSSNPWTFGGGTKLEIK", 13]
]}

Please turn your attention to the following entry.
Lookup result for 2B4 IgG (antibody, V domains shown) VH: DVQLQQSGTVLARPGASVRMSCKASGYSFTRYWIHWLKQRPGQGLEWIGAIFPGNRDTSYNQRFKGKAEVTAVTSASTAYLDLSSLTNEDSAVYYCTRWPYYGSIYVNFDYWGQGTTLTVSS VL: DIVMTQSPLSLPVSLGDQASISCRTSQNLVHRNGNTYLHWYLQKPGQSPKLLIYKISNRFSGVPDRFSGSGSGTDFTLKISRVEAEDLGVYFCSQGTHVPPTFGGGTKLEIKR ; measured % inhib of 125I-5C9 IgG binding at 0.01 µg/mL: 8
